Assignment: determine reported EC50 for the given compounds.
- METHOD NOTES: Cytotoxicity against human […] cells by tetrazolium salt-based colorimetric assay
- Format: functional
- CONDITION NOTES: read-out: ED50 (the source's name)
Response body: numeric value in µg/mL, unit text excluded.

Sample O=C(O)C[C@@H]1C(=O)O[C@H]2[C@@H]3OC(=O)c4cc(O)c(O)c(O)c4-c4c(cc(O)c(O)c4O)C(=O)OC[C@H]2O[C@@H](OC(=O)c2cc(O)c(O)c(O)c2)[C@@H]3OC(=O)c2cc(O)c(O)c3c2[C@H]1[C@H](O)C(=O)O3 — what was its EC50?
0.8

Sample O=C(OC[C@H]1O[C@@H](OC(=O)c2cc(O)c(O)c(O)c2)[C@H](OC(=O)c2cc(O)c(O)c(O)c2)[C@@H](OC(=O)c2cc(O)c(O)c(O)c2)[C@@H]1OC(=O)c1cc(O)c(O)c(O)c1)c1cc(O)c(O)c(O)c1 — what was its EC50?
5.01

Sample O=C(O)c1cc(O)c(O)c(Oc2cc3c(c(O)c2O)-c2c(cc(O)c(O)c2O)C(=O)OC[C@H]2O[C@@H](OC(=O)c4cc(O)c(O)c(O)c4)[C@H](OC(=O)c4cc(O)c(O)c(O)c4)[C@@H](OC(=O)c4cc(O)c(O)c(O)c4)[C@@H]2OC3=O)c1 — what was its EC50?
0.44

Sample O=C(O[C@@H]1O[C@@H]2COC(=O)c3cc(O)c(O)c(O)c3-c3c(cc(O)c(O)c3O)C(=O)O[C@H]2[C@H](O)[C@H]1O)c1cc(O)c(O)c(O)c1 — what was its EC50?
4.86

Sample O=C1O[C@H]2[C@H](O)[C@@H](OC(=O)c3cc(O)c(O)c4c3[C@@H]3C1=CC(=O)C(O)(O)C3(O)O4)[C@H](OC(=O)c1cc(O)c(O)c(O)c1)O[C@@H]2CO (some centres not stated) — what was its EC50?
0.67

Sample O=C1O[C@H]2[C@@H]3OC(=O)c4cc(O)c(O)c(O)c4-c4c(cc(O)c(O)c4O)C(=O)OC[C@H]2O[C@@H](OC(=O)c2cc(O)c(O)c(O)c2)[C@@H]3OC(=O)c2cc(O)c(O)c3c2[C@@H]2C1=CC(=O)[C@](O)(O3)C2(O)O — what was its EC50?
0.35

Sample O=C(O[C@@H]1COC(=O)c2cc(O)c(O)c(O)c2-c2c(cc(O)c(O)c2O)C(=O)O[C@H]1[C@@H]1OC(=O)c2cc(O)c(O)c(O)c2-c2c(O)c(O)c(O)c3c2C(=O)O[C@H]1[C@@H]3O)c1cc(O)c(O)c(O)c1 — what was its EC50?
2.24

Sample O=C(O[C@@H]1C[C@](OC(=O)c2cc(O)c(O)c(O)c2)(C(=O)O)C[C@@H](OC(=O)c2cc(O)c(O)c(O)c2)[C@H]1OC(=O)c1cc(O)c(O)c(O)c1)c1cc(O)c(O)c(O)c1 — what was its EC50?
0.43

Sample Oc1cc(O)c2c(c1)O[C@H](c1ccc(O)c(O)c1)[C@H](O)[C@H]2c1c(O)cc(O)c2c1O[C@@]1(c3ccc(O)c(O)c3)Oc3cc(O)c4c(c3[C@@H]2[C@H]1O)O[C@H](c1ccc(O)c(O)c1)[C@H](O)[C@H]4c1c(O)cc(O)c2c1O[C@H](c1ccc(O)c(O)c1)[C@H](O)C2 — what was its EC50?
0.66

Sample O=C(O[C@@H]1[C@@H](c2c(O)cc(O)c3c2O[C@H](c2ccc(O)c(O)c2)[C@H](OC(=O)c2cc(O)c(O)c(O)c2)C3)c2c(O)cc(O)cc2O[C@@H]1c1ccc(O)c(O)c1)c1cc(O)c(O)c(O)c1 — what was its EC50?
3.45

The reported measurements were obtained from ChEMBL document CHEMBL1150212.
